target: Retinoic acid receptor alpha (Homo sapiens) (UniProt P10276); assay: ATG_DR5_RAR_CIS: Attagene CIS-FACTORIAL HepG2 Assay for human Retinoic Acid Receptor Alpha (RARE), DR5 submotif (AID 2282934); settings: HepG2 Attagene cis-factorial RARE DR5 reporter, mRNA; actives raise or lower the signal
Sequence (P10276 whole entry, looked up): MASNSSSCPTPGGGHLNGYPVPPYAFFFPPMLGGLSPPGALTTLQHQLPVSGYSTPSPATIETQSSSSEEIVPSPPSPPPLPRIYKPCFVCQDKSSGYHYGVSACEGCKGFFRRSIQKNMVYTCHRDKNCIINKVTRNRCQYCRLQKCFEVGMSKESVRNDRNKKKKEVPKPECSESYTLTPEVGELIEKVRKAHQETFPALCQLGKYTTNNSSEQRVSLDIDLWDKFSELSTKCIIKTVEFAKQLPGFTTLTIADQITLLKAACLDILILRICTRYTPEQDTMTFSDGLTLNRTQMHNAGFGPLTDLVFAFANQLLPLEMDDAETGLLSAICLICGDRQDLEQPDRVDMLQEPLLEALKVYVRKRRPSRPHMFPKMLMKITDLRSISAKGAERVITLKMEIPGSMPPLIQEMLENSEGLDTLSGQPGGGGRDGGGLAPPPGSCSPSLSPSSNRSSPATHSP
Activity calls are given as the source filed them. Rule for the calls: active = hit-call score of the fitted dose curve at least 0.9, where 1 is the maximum; inactive = score below 0.9.
property: outcome

INSERT INTO assay_data (compoundstructure, systemundertest, result) VALUES
  ('OCCNCCO', 'Retinoic acid receptor alpha (Homo sapiens) (UniProt P10276)', 'inactive'),
  ('O=S(=O)(O)CCC(F)(F)C(F)(F)C(F)(F)C(F)(F)C(F)(F)C(F)(F)F', 'Retinoic acid receptor alpha (Homo sapiens) (UniProt P10276)', 'inactive'),
  ('O=c1[nH]cnc2c1ncn2[C@H]1CC[C@@H](CO)O1', 'Retinoic acid receptor alpha (Homo sapiens) (UniProt P10276)', 'inactive'),
  ('OC(O)(C(F)C(O)(O)C(F)(F)F)C(F)(F)F', 'Retinoic acid receptor alpha (Homo sapiens) (UniProt P10276)', 'inactive');

----------
assay: Tanguay_ZF_120hpf_MO24: Oregon State University Tanguay Lab 24 Hour Post-fertilization zebrafish Assay for Mortality (AID 2284389)
Active and inactive are the calls of the source. How the source made its calls: active means hit-call score of the fitted dose curve at least 0.9, where 1 is the maximum; inactive means score below 0.9.
Classes used: class 1 for active, class 0 for inactive

INSERT INTO measurements (compound, assignedlabel) VALUES
  ('FC(F)=C(F)C(F)(F)C(F)(F)C(F)(F)C(F)(F)C(F)(F)C(F)(F)F', 'class 0'),
  ('OCCC(F)(F)C(F)(F)C(F)(F)C(F)(F)F', 'class 0'),
  ('FC(F)C(F)(F)COCC1CO1 (stereo unspecified)', 'class 0'),
  ('FC(F)(F)C(F)(F)C(F)(F)C(F)(F)C(F)(F)C(F)(F)I', 'class 0'),
  ('O=C(Cl)C(F)(F)C(F)(F)C(F)(F)C(=O)Cl', 'class 1'),
  ('C[Si](C)(C)C(F)(F)C(F)(F)C(F)(F)F', 'class 0');

----------
read-out: Human Leukocyte Antigen - DR isotype (HLADR), HLA-DRA (gene 3122); assay: BSK_BE3C_HLADR: BioMAP Diversity Plus: BE3C Assay for Human Leukocyte Antigen - DR isotype (HLADR) Biomarker Activity (AID 2283032); settings: primary human bronchial epithelial cells; actives raise or lower the signal
Active and inactive are the calls of the source. How the source made its calls: active means hit-call score of the fitted dose curve at least 0.9, where 1 is the maximum; inactive means score below 0.9.
Classes used: Y for active, N for inactive

INSERT INTO measurements (compound, assignedlabel) VALUES
  ('CCCCCCCC/C=C\CCCCCCCC(=O)OC[C@@H](O)[C@H]1OC[C@H](O)[C@H]1O', 'N'),
  ('O=c1[nH]cnc2c1ncn2[C@H]1CC[C@@H](CO)O1', 'N'),
  ('CCCCC(CC)C(=O)OCCOCCOCCOC(=O)C(CC)CCCC (stereo not given)', 'N'),
  ('Cc1cccc(O)c1C', 'N'),
  ('NC(=O)N(O)[C@@H]1COc2cc(OCc3ccccc3)ccc21', 'N'),
  ('O=C(O)c1cccc(C(=O)O)c1', 'N'),
  ('FC(F)(F)COC(OCC(F)(F)F)OCC(F)(F)F', 'N'),
  ('Cn1cc[nH]c1=S', 'N'),
  ('OC(CCl)CCl', 'N'),
  ('c1ccc(C(O[C@@H]2CCCN(CCc3ccc4c(c3)OCO4)C2)c2ccccc2)cc1', 'Y'),
  ('S=P(N1CC1)(N1CC1)N1CC1', 'N'),
  ('OCCNCCO', 'N'),
  ('CCOC(N)=O', 'N'),
  ('COCc1nnc(-c2ccc[n+]([O-])c2)n1-c1c(Cl)c(Cl)cc2[nH]c(=O)c(=O)[nH]c12', 'N'),
  ('CCCCN1C(=O)[C@@H]([C@H](O)C2CCCCC2)NC(=O)C12CCN(Cc1ccc(Oc3ccc(C(=O)O)cc3)cc1)CC2', 'N'),
  ('NC(=O)NN=Cc1ccc([N+](=O)[O-])o1', 'N'),
  ('OCC(CO)(CO)CO', 'N'),
  ('C=CN1CCCC1=O', 'N'),
  ('O=S(=O)(O)c1ccc(N=Nc2c(O)ccc3cc(S(=O)(=O)O)ccc23)cc1', 'N'),
  ('C[C@]12C=CC(=O)C=C1CC[C@H]1[C@@H]3C[C@@H](O)[C@](O)(C(=O)CO)[C@@]3(C)C[C@H](O)[C@@]12F', 'N'),
  ('OC(Cn1cncn1)(Cn1cncn1)c1ccc(F)cc1F', 'N'),
  ('O=C(O)c1ccc2c(c1)nc(C(=O)NC1CCN(C3CC3)CC1)n2Cc1cc(-c2ccc(Cl)s2)on1', 'N'),
  ('OC[C@H]1O[C@@H]2O[C@H]3[C@H](O)[C@@H](O)[C@@H](O[C@H]4[C@H](O)[C@@H](O)[C@@H](O[C@H]5[C@H](O)[C@@H](O)[C@@H](O[C@H]6[C@H](O)[C@@H](O)[C@@H](O[C@H]7[C@H](O)[C@@H](O)[C@@H](O[C@H]1[C@H](O)[C@H]2O)O[C@@H]7CO)O[C@@H]6CO)O[C@@H]5CO)O[C@@H]4CO)O[C@@H]3CO', 'N'),
  ('CC(C)C(=O)Nc1ccc([N+](=O)[O-])c(C(F)(F)F)c1', 'N'),
  ('NCC(F)(F)C(F)(F)C(F)(F)C(F)(F)F', 'N');

----------
read-out: E-selectin (Homo sapiens); assay: BSK_LPS_Eselectin: BioMAP Diversity Plus: LPS Assay for Eselectin Biomarker Activity (AID 2283077); details: primary human HUVEC with PBMC; actives raise or lower the signal
Activity calls are given as the source filed them. The calls were made as follows: active = hit-call score of the fitted dose curve at least 0.9, where 1 is the maximum; inactive = score below 0.9.
Classes used: YES = active, NO = inactive

INSERT INTO measurements (compoundstructure, assignedlabel) VALUES
  ('c1ccc2c(c1)-c1cccc3c1c-2cc1ccccc13', 'NO'),
  ('C=CCc1cc(S(=O)(=O)c2ccc(O)c(CC=C)c2)ccc1O', 'YES'),
  ('C=CN1CCCC1=O', 'NO'),
  ('C[Si](C)(C)C(F)(F)C(F)(F)C(F)(F)F', 'NO'),
  ('S=P(N1CC1)(N1CC1)N1CC1', 'NO');

----------
assay: Tanguay_ZF_120hpf_MORT: Oregon State University Tanguay Lab 120 Hour Post-fertilization zebrafish Assay for Mortality (AID 2284399)
Activity calls are given as the source filed them. How the source made its calls: active means hit-call score of the fitted dose curve at least 0.9, where 1 is the maximum; inactive means score below 0.9.
Classes used: true for active, false for inactive

INSERT INTO results (compound, assignedlabel) VALUES
  ('FC(F)C(F)(F)COCC1CO1 (configuration not stated)', 'false'),
  ('FC(F)(F)COC(OCC(F)(F)F)OCC(F)(F)F', 'false'),
  ('FC(F)(F)C(F)(F)C(F)(F)C(F)(F)C(F)(F)C(F)(F)I', 'false'),
  ('O=S(=O)(O)CCC(F)(F)C(F)(F)C(F)(F)C(F)(F)C(F)(F)C(F)(F)F', 'false'),
  ('NCC(F)(F)C(F)(F)C(F)(F)C(F)(F)F', 'false'),
  ('FC(F)=C(F)C(F)(F)C(F)(F)C(F)(F)C(F)(F)C(F)(F)C(F)(F)F', 'false'),
  ('O=C(Cl)C(F)(F)C(F)(F)C(F)(F)C(=O)Cl', 'true');

----------
assay: CCTE_Mundy_HCI_iCellGluta_NOG_NeuriteLength: CCTE's Neurite Outgrowth Assay in iCellGluta cells for Neurite Length, Mundy Lab (AID 2284318)
Inconclusive results are not listed. Activity calls are given as the source filed them. The calls were made as follows: active = hit-call score of the fitted dose curve at least 0.9, where 1 is the maximum; inconclusive = response in the unintended direction; inactive = score below 0.9.
Classes used: active, inactive

INSERT INTO measurements (compoundstructure, assignedlabel) VALUES
  ('c1ccc2cc3ccccc3cc2c1', 'inactive'),
  ('Cn1cc[nH]c1=S', 'inactive'),
  ('C[C@]12C=CC(=O)C=C1CC[C@H]1[C@@H]3C[C@@H](O)[C@](O)(C(=O)CO)[C@@]3(C)C[C@H](O)[C@@]12F', 'active'),
  ('FC(F)=C(F)C(F)(F)C(F)(F)C(F)(F)C(F)(F)C(F)(F)C(F)(F)F', 'inactive');

----------
biological target: Estrogen receptor (Homo sapiens) (UniProt P03372); assay: ATG_ERa_TRANS: Attagene TRANS-FACTORIAL HepG2 Assay for human Estrogen Receptor alpha (ERa) (AID 2282970); conditions: HepG2 Attagene TRANS ERa GAL4 reporter, mRNA
Sequence (P03372 whole entry, looked up, the tested form may be a part): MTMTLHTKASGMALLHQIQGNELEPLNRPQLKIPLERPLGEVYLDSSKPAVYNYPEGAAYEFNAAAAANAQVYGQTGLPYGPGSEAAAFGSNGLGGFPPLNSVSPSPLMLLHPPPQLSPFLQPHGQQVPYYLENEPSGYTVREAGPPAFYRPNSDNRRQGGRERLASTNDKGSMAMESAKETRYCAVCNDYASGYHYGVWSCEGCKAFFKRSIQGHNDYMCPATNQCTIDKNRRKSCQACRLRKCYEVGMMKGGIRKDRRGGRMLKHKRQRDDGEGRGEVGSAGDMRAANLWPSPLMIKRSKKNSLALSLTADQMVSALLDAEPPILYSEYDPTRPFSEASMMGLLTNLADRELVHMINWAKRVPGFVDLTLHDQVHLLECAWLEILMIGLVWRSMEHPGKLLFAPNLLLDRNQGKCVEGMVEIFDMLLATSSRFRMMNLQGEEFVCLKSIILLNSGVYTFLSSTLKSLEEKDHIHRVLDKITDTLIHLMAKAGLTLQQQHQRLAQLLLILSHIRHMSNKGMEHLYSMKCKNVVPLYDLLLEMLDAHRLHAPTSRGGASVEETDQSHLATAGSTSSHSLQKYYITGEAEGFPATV
Records with an inconclusive call do not appear. Calls of active or inactive are those of the source. Rule for the calls: active = hit-call score of the fitted dose curve at least 0.9, where 1 is the maximum; inconclusive = response in the unintended direction; inactive = score below 0.9.
Classes used: class 1 (active), class 0 (inactive)

INSERT INTO results (molecule, assignedlabel) VALUES
  ('CCCCCCCCCC', 'class 0'),
  ('Nc1ccn([C@@H]2O[C@H](CO)[C@@H](O)[C@@H]2O)c(=O)n1', 'class 1'),
  ('c1ccc(C(O[C@@H]2CCCN(CCc3ccc4c(c3)OCO4)C2)c2ccccc2)cc1', 'class 1'),
  ('c1ccc2cc3ccccc3cc2c1', 'class 0'),
  ('CCOC(N)=O', 'class 0'),
  ('CCCCCCCC1CCC(=O)O1 (configuration not stated)', 'class 0'),
  ('CCN(CC)C(=S)SSC(=S)N(CC)CC', 'class 0'),
  ('CCOc1ccc2[nH]cc(C(=O)NCc3ccccc3)c(=O)c2n1', 'class 0'),
  ('NC(=O)N(O)[C@@H]1COc2cc(OCc3ccccc3)ccc21', 'class 0'),
  ('C[C@]12C=CC(=O)C=C1CC[C@H]1[C@@H]3C[C@@H](O)[C@](O)(C(=O)CO)[C@@]3(C)C[C@H](O)[C@@]12F', 'class 1'),
  ('CCCCN1C(=O)[C@@H]([C@H](O)C2CCCCC2)NC(=O)C12CCN(Cc1ccc(Oc3ccc(C(=O)O)cc3)cc1)CC2', 'class 0'),
  ('CC(=O)c1ccccc1', 'class 0');
